system: HLA-A*33:01
method: IEDB peptide-MHC binding, purified MHC/competitive/radioactivity; filed as Kd, often an IC50 or EC50 that approximates it; bounds were set here for any values at or beyond the usual limits of such assays
assayConditions: source organism: Dengue virus 1 Brazil/97-11/1997
pKd: −log10 of the molar value.

>  <querySequence>
TIEEGRTLR

>  <system>
HLA-A*33:01

>  <pKd>
6.42

$$$$
>  <querySequence>
HMIVSKQER

>  <system>
HLA-A*33:01

>  <pKd>
5.06

$$$$

---

system: HLA-A*23:01
method: IEDB peptide-MHC binding, purified MHC/competitive/radioactivity; filed as Kd, often an IC50 or EC50 that approximates it; bounds were set here for any values at or beyond the usual limits of such assays
assayConditions: source organism: Dengue virus 3 Martinique/1243/1999
Catalogue of Kd readings, one per entry.

>  <querySequence>
AWMVHRQWF

>  <valueUnit>
nM

>  <Kd>
340

$$$$
>  <querySequence>
LWMAEIPLQW

>  <valueUnit>
nM

>  <Kd>
13.7

$$$$

---

system: HLA-A*30:01
method: IEDB peptide-MHC binding, purified MHC/direct/fluorescence; filed as Kd, often an IC50 or EC50 that approximates it; bounds were set here for any values at or beyond the usual limits of such assays
assayConditions: source organism: Kurkino virus
resultType: Kd

>  <querySequence>
YYTEDQGQF

>  <observed>
≥ 20 µM

$$$$

---

system: HLA-B*40:01
method: IEDB peptide-MHC binding, purified MHC/competitive/radioactivity; filed as Kd, often an IC50 or EC50 that approximates it; bounds were set here for any values at or beyond the usual limits of such assays
assayConditions: source organism: Mammarenavirus juninense

>  <querySequence>
HDLPLLCTL

>  <valueUnit>
µM

>  <Kd>
16.1

$$$$

---

system: HLA-B*51:01
method: IEDB peptide-MHC binding, purified MHC/competitive/radioactivity; filed as Kd, often an IC50 or EC50 that approximates it; bounds were set here for any values at or beyond the usual limits of such assays
assayConditions: source organism: Vaccinia virus WR
Entries and their measured Kd follow.
resultType: Kd (µM)

>  <querySequence>
VLPHLCLDYK

>  <resultType>
Kd

>  <censoringQualifier>
≥

>  <observed>
69.6

$$$$
>  <querySequence>
SPETQQMII

>  <resultType>
Kd

>  <censoringQualifier>
=

>  <observed>
0.105

$$$$
>  <querySequence>
LPFYETLPEL

>  <resultType>
Kd

>  <censoringQualifier>
=

>  <observed>
0.0551

$$$$
>  <querySequence>
VPHSVFIASA

>  <resultType>
Kd

>  <censoringQualifier>
≥

>  <observed>
69.6

$$$$
>  <querySequence>
NPTKYIRWKL

>  <resultType>
Kd

>  <censoringQualifier>
≥

>  <observed>
59.4

$$$$
>  <querySequence>
KPYTAGNKV

>  <resultType>
Kd

>  <censoringQualifier>
=

>  <observed>
0.0103

$$$$

---

system: HLA-B*51:01
method: IEDB peptide-MHC binding, purified MHC/direct/fluorescence; filed as Kd, often an IC50 or EC50 that approximates it; bounds were set here for any values at or beyond the usual limits of such assays
assayConditions: source organism: Salmonella enterica subsp. enterica serovar Typhimurium
pKd: −log10 of the molar value.

>  <querySequence>
LAMLVLHQV

>  <system>
HLA-B*51:01

>  <pKd>
6.38

$$$$

---

system: HLA-B*40:01
method: IEDB peptide-MHC binding, purified MHC/direct/fluorescence; filed as Kd, often an IC50 or EC50 that approximates it; bounds were set here for any values at or beyond the usual limits of such assays
assayConditions: source organism: Salmonella enterica

>  <querySequence>
AHSKAETEA

>  <Kd>
≥ 20 µM

$$$$

---

system: HLA-B*51:01
method: IEDB peptide-MHC binding, purified MHC/competitive/fluorescence; filed as Kd, often an IC50 or EC50 that approximates it; bounds were set here for any values at or beyond the usual limits of such assays
assayConditions: source organism: Zaire ebolavirus
pKd: −log10 of the molar value.
resultType: pKd

>  <querySequence>
YFTFDLTAL

>  <system>
HLA-B*51:01

>  <observed>
≤ 4.70

$$$$
>  <querySequence>
LTDRELLLL

>  <system>
HLA-B*51:01

>  <observed>
≤ 4.70

$$$$
>  <querySequence>
WLQKIPLQW

>  <system>
HLA-B*51:01

>  <observed>
≤ 4.70

$$$$

---

system: HLA-A*24:03
method: IEDB peptide-MHC binding, purified MHC/direct/fluorescence; filed as Kd, often an IC50 or EC50 that approximates it; bounds were set here for any values at or beyond the usual limits of such assays
assayConditions: source organism: Aggregatibacter actinomycetemcomitans
pKd: −log10 of the molar value.
resultType: pKd

>  <querySequence>
TTRAWFDKK

>  <observed>
≤ 4.70

$$$$

---

Here, each record is paired with measured Kd data.
system: HLA-A*11:01
method: IEDB peptide-MHC binding, purified MHC/competitive/radioactivity; filed as Kd, often an IC50 or EC50 that approximates it; bounds were set here for any values at or beyond the usual limits of such assays
assayConditions: source organism: SARS coronavirus Tor2

>  <querySequence>
LAMDEFIQR

>  <valueUnit>
nM

>  <Kd>
2390

$$$$
>  <querySequence>
VTCAAYYFMK

>  <valueUnit>
nM

>  <Kd>
6.93

$$$$
>  <querySequence>
IMASLVLAR

>  <valueUnit>
nM

>  <Kd>
104

$$$$
>  <querySequence>
NLLDSYFVVK

>  <valueUnit>
nM

>  <Kd>
1870

$$$$
>  <querySequence>
FLLNKEMYLK

>  <valueUnit>
nM

>  <Kd>
153

$$$$
>  <querySequence>
SLTSLLKTHR

>  <valueUnit>
nM

>  <Kd>
1230

$$$$
>  <querySequence>
FLKEQHCQK

>  <valueUnit>
nM

>  <Kd>
15400

$$$$
>  <querySequence>
RQLFKPLTK

>  <valueUnit>
nM

>  <Kd>
662

$$$$
>  <querySequence>
TFFSTFKCY

>  <valueUnit>
nM

>  <Kd>
4350

$$$$
>  <querySequence>
NFLKEQHCQK

>  <valueUnit>
nM

>  <Kd>
13300

$$$$
>  <querySequence>
SLTVLFDGR

>  <valueUnit>
nM

>  <Kd>
7530

$$$$

---

system: HLA-A*24:03
method: IEDB peptide-MHC binding, purified MHC/direct/fluorescence; filed as Kd, often an IC50 or EC50 that approximates it; bounds were set here for any values at or beyond the usual limits of such assays
assayConditions: source organism: Orthohantavirus andesense

>  <querySequence>
LEEDIQHFL

>  <Kd>
≥ 20 µM

$$$$

---

system: HLA-A*11:01
method: IEDB peptide-MHC binding, purified MHC/competitive/fluorescence; bounds were set here for any values at or beyond the usual limits of such assays
assayConditions: source organism: Sudan ebolavirus
pIC50: −log10 of the molar value.

>  <querySequence>
ILGSLGLRK

>  <system>
HLA-A*11:01

>  <pIC50>
6.66

$$$$

---

system: HLA-B*07:02
method: IEDB peptide-MHC binding, purified MHC/direct/fluorescence; filed as Kd, often an IC50 or EC50 that approximates it; bounds were set here for any values at or beyond the usual limits of such assays
assayConditions: source organism: Mammarenavirus juninense
resultType: Kd (µM)

>  <querySequence>
AAVKAGASI

>  <observed>
2.06

$$$$

---

system: HLA-B*44:02
method: IEDB peptide-MHC binding, purified MHC/direct/fluorescence; filed as Kd, often an IC50 or EC50 that approximates it; bounds were set here for any values at or beyond the usual limits of such assays
assayConditions: source organism: Brucella abortus
pKd: −log10 of the molar value.
The following sequences are shown together with reported pKd values.

>  <querySequence>
LSDDSGLMV

>  <pKd>
≤ 4.70

$$$$
>  <querySequence>
LTDAFHGYH

>  <pKd>
≤ 4.70

$$$$

---

Property: Kd; scope: individual sequences
system: HLA-A*02:01
method: IEDB peptide-MHC binding, purified MHC/competitive/radioactivity; filed as Kd, often an IC50 or EC50 that approximates it; bounds were set here for any values at or beyond the usual limits of such assays
assayConditions: source organism: Dengue virus 3 China/80-2/1980
resultType: Kd

>  <querySequence>
WMTTEDMLTV

>  <observed>
0.0136 µM

$$$$
>  <querySequence>
FMMVLLIPEP

>  <observed>
0.0931 µM

$$$$
>  <querySequence>
LMMMLPATLA

>  <observed>
0.0135 µM

$$$$
>  <querySequence>
MLWMADVPL

>  <observed>
0.00116 µM

$$$$

---

system: HLA-A*24:02
method: IEDB peptide-MHC binding, purified MHC/competitive/fluorescence; filed as Kd, often an IC50 or EC50 that approximates it; bounds were set here for any values at or beyond the usual limits of such assays
assayConditions: source organism: Francisella tularensis subsp. holarctica FSC200

>  <querySequence>
IFIYSFFTW

>  <Kd [nM]>
11.1

$$$$
